Sourced from ChEMBL document CHEMBL1153389

System: Pseudomonas aeruginosa
Assay: Antimicrobial activity against multidrug-resistant Pseudomonas aeruginosa Brazil 213 isolate after overnight incubation by broth microdilution method
Format: functional
RECORDED ENDPOINT: MIC (µM)
Only the number, expressed in µM, is required.

Guide cases for MIC, answers given:
H-WRWWKIWKR-OH
47
H-IWWKWRRWV-OH
48
H-LRWWWIKRI-OH
50
H-WKKWWKRRW-OH
93
H-RWRRWKWWL-OH
23
H-RKWIWRWFL-OH
6.1

Now consider a different substance.
Problem: Request: MIC, test system Pseudomonas aeruginosa, entry H-KIWWWWRKR-OH
Result: 47

---

System: Escherichia coli
Assay: Antimicrobial activity against extended-spectrum beta-lactamase producing Escherichia coli 64771 after overnight incubation by broth microdilution method
Type: functional
MIC: recorded values

H-WKRWWKKWR-OH
2.9 µM
H-FRRWWKWFK-OH
6.1 µM

Problem: Lab note: need MIC for H-KIWWWWRKR-OH on Escherichia coli, anyone have it?
Result: 5.9 µM

Problem: # get_value(readout= MIC, system= Escherichia coli) for H-KWKIFRRWW-OH
Result: 12 µM

Problem: Recorded MIC for H-KRIMKLKMR-OH with Escherichia coli, please?
Result: > 226 µM

Problem: Provide value of MIC for this record tested with Escherichia coli: H-AWRFKNIRK-OH
Result: 223 µM

Problem: Notebook: pull reported MIC for Escherichia coli, entry H-VVLKIVRRF-OH
Result: 241 µM

Problem: Could you share what MIC was measured for H-RKRLKWWIY-OH , tested on Escherichia coli?
Result: 6.3 µM

---

Test system: Enterococcus faecium
Test: Antimicrobial activity against vancomycin-resistant Enterococcus faecium mic80(VanA) isolate after overnight incubation by broth microdilution method
Assay type: functional
RECORDED ENDPOINT: MIC (µM)
Report as a plain number; the unit µM is understood.

H-WRWWKIWKR-OH
5.9
H-RWRRWKWWL-OH
5.7
H-RRFKFIRWW-OH
6.1

Problem: // lookup MIC for H-VVLKIVRRF-OH
Result: 241

Problem: Look up MIC for this substance: H-AVWKFVKRV-OH
Result: 120

Problem: Fill in: MIC of H-WKRWWKKWR-OH is ___
Result: 23

Problem: Requested field: MIC. Item: H-IWWKWRRWV-OH
Result: 6

Problem: Fill in the blank: the reported MIC of H-RLARIVVIRVAR-OH is ____.
Result: 12

---

Tested on: Staphylococcus aureus
Assay: Antimicrobial activity against Staphylococcus aureus ATCC 25923 after overnight incubation by broth microdilution method
Type: functional
Catalogue of MIC values
The reply should be a number in µM, with the unit left off.

Worked cases, MIC given:
H-AVWKFVKRV-OH
240
H-VVLKIVRRF-OH
241
H-RRFKFIRWW-OH
6.1

Problem: Which MIC reading was recorded for the substance H-RKRLKWWIY-OH ?
Result: 6.3

Problem: Reported MIC, substance H-LRWWWIKRI-OH : ____
Result: 6.3

Problem: Look up MIC for this substance: H-IWWKWRRWV-OH
Result: 3

Problem: Which MIC value is on record for H-RWRRWKWWL-OH ?
Result: 2.9

Problem: Entry H-KIWWWWRKR-OH : reported MIC = ?
Result: 5.9

---

Test system: Enterococcus faecium
Experiment: Antimicrobial activity against vancomycin-resistant Enterococcus faecium t62764(VanB) isolate after overnight incubation by broth microdilution method
Format: functional
In plain terms, low MIC, meaning strictly below 6 µM, gives 1.0, and everything else gives 0.0.

Solved entries (count: 5):
H-WKKWWKRRW-OH
1.0
H-RLARIVVIRVAR-OH
1.0
H-WKRWWKKWR-OH
1.0
H-LRWWWIKRI-OH
1.0
H-RKRLKWWIY-OH
1.0

Problem: Does the reported MIC of H-KRIMKLKMR-OH stay below 6 µM?
Result: 0.0

Problem: API: query returns whether the substance falls strictly under 6 µM in MIC. Query: H-RKWIWRWFL-OH
Result: 1.0

Problem: Please indicate whether the reported MIC of H-KIWWWWRKR-OH is strictly below 6 µM.
Result: 1.0

Problem: Answer whether the substance H-IWWKWRRWV-OH has MIC strictly less than 6 µM
Result: 1.0

Problem: Regarding H-RWRRWKWWL-OH , kindly confirm whether its MIC is beneath 6 µM.
Result: 1.0

Problem: Identify whether the substance H-AIRRWRIRK-OH records MIC below 6 µM.
Result: 0.0

Problem: API: query returns whether the substance falls strictly under 6 µM in MIC. Query: H-WRWWKIWKR-OH
Result: 1.0

---

Tested on: Pseudomonas aeruginosa
Assay: Antimicrobial activity against Pseudomonas aeruginosa H1001 expressing luciferase gene assessed as ratio antimicrobial IC50 for drug to Bac2A peptide by luminescence assay
Format: functional
Class field: derived from Ratio IC50; ranges 0 (below 0.6), 1 (0.6 to below 6), 2 (6 or more)

Recorded results for 2 substances are shown here.
H-RRWWHLWRK-OH
0
H-IKRWWWRRW-OH
0

Problem: Categorize the following entry: H-GSRRSVWVF-OH
Result: 1

Problem: Which Ratio IC50 category applies to H-KIRRKVRWG-OH here?
Result: 2

Problem: Note: place this substance into its band. Item: H-GWGGKRRNF-OH
Result: 2

Problem: Which category fits this record: H-RWLVLRKRW-OH
Result: 0

Problem: Bin? H-GRMRLWNGR-OH
Result: 2

Problem: Category of H-RVWFKRRWW-OH :
Result: 0

Problem: # bin lookup: classify H-RGRRQIGKF-OH by its Ratio IC50
Result: 2

---

System: Pseudomonas aeruginosa
Assay: Antimicrobial activity against multidrug-resistant Pseudomonas aeruginosa Brazil 198 isolate after overnight incubation by broth microdilution method
Assay type: functional
RECORDED ENDPOINT: MIC (µM)
# value in µM; strip the unit string

Answered cases to consult:
H-RKWIWRWFL-OH
3.1
H-RKRLKWWIY-OH
50
H-KWKIFRRWW-OH
24
H-WKKWWKRRW-OH
46
H-WRWWKIWKR-OH
24

Problem: Which MIC is listed for H-WKRWWKKWR-OH ?
Result: 46

Problem: Fill blank: measured MIC of the substance H-RRFKFIRWW-OH is ____.
Result: 49

Problem: # MIC lookup, item H-IWWKWRRWV-OH
Result: 12

Problem: Need MIC of H-FRRWWKWFK-OH , thanks.
Result: 3

Problem: Looking for the measured MIC of H-AVWKFVKRV-OH , can you help?
Result: 240

Problem: Query (substance): H-KIWWWWRKR-OH ; field requested: MIC
Result: 24

Problem: // lookup MIC for H-RWRRWKWWL-OH
Result: 12

Problem: Need MIC, item H-LRWWWIKRI-OH
Result: 25

Problem: Using the record for H-RLARIVVIRVAR-OH , report its MIC.
Result: 95

---

System: Pseudomonas aeruginosa
Assay: Antimicrobial activity against Pseudomonas aeruginosa H1030 after overnight incubation by broth microdilution method
Assay type: functional
MIC values, listed per item
Give your result in µM as a bare value.

Solved entries (count: 4):
H-FRRWWKWFK-OH
24
H-RWRRWKWWL-OH
12
H-WKKWWKRRW-OH
46
H-RRFKFIRWW-OH
49

Problem: Which MIC value is on record for H-WKRWWKKWR-OH ?
Result: 46

Problem: Entry under review: H-IWWKWRRWV-OH . Reported MIC?
Result: 48

Problem: Name the reported MIC value associated with the substance H-RLARIVVIRVAR-OH
Result: 95

Problem: Which MIC reading was recorded for the substance H-RKRLKWWIY-OH ?
Result: 50

Problem: Which MIC is listed for H-KIWWWWRKR-OH ?
Result: 12

---

System: Stenotrophomonas maltophilia
Experiment: Antimicrobial activity against Pseudomonas maltophilia ATCC 13637 after overnight incubation by broth microdilution method
Assay type: functional
RECORDED ENDPOINT: MIC (µM)
// units = µM; emit number, no label

See these solved cases before continuing.
H-AIRRWRIRK-OH
108
H-WKKWWKRRW-OH
1.4
H-AVWKFVKRV-OH
60
H-KIWWWWRKR-OH
3
H-RRFKFIRWW-OH
0.8
H-RKWIWRWFL-OH
1.5

Problem: Could you share which MIC value was measured for H-WRWWKIWKR-OH ?
Result: 0.8

Problem: # input substance: H-RWRRWKWWL-OH ; wanted: its MIC
Result: 0.7

Problem: Requested field: MIC. Item: H-WKRWWKKWR-OH
Result: 1.4

---

System: Pseudomonas aeruginosa
Assay: Antimicrobial activity against Pseudomonas aeruginosa H1001 expressing luciferase gene assessed as ratio antimicrobial IC50 for drug to Bac2A peptide by luminescence assay
Type: functional
RECORDED ENDPOINT: Ratio IC50

Problem: Which measured Ratio IC50 belongs to H-KKRWLWWWR-OH , tested on Pseudomonas aeruginosa?
Result: 0.3

Problem: Under Pseudomonas aeruginosa: Ratio IC50 value of H-IWIWRKLRW-OH ?
Result: 0.46

Problem: What value of Ratio IC50 on Pseudomonas aeruginosa does H-RVFVKIRMK-OH have?
Result: 0.72

Problem: What reported Ratio IC50 corresponds to H-KNRGRWFSH-OH on Pseudomonas aeruginosa?
Result: 9.79
